# Protocol Text: Plasma kinetics of TMC278 in beagle dogs after single intramuscular administration
# Type: in vivo
# Run Parameters: male, beagle, dog, plasma, intramuscular, 2.5 mg/kg, mean (n=2); 0.5 h after dose; single IM 2.5 mg/kg, aqueous 30% DMA/50% PEG400 solution
Quantity: concentration at 0.5 h (ng/mL)
Enter your answer as a number in ng/mL; do not include the unit.

Enquiry: GET /values?readout=concentration at 0.5 h&item= Cc1cc(C=CC#N)cc(C)c1Nc1ccnc(Nc2ccc(C#N)cc2)n1 [TMC278]
Return: 17.4

----------
# Protocol Text: Plasma kinetics of TMC278 in beagle dogs after single intramuscular administration
# Type: in vivo
# Run Parameters: male, beagle, dog, plasma, intramuscular, 2.5 mg/kg, mean (n=2); 8 h after dose; single IM 2.5 mg/kg, aqueous 30% DMA/50% PEG400 solution
Quantity: concentration at 8 h (ng/mL)
Field format: number, assumed ng/mL, no unit text.

Enquiry: Report concentration at 8 h for `Cc1cc(C=CC#N)cc(C)c1Nc1ccnc(Nc2ccc(C#N)cc2)n1` please.
Return: 27.5

----------
# Protocol Text: Plasma kinetics of TMC278 in beagle dogs after single intramuscular administration
# Type: in vivo
# Run Parameters: male, beagle, dog, plasma, intramuscular, 2.5 mg/kg, dog No. 16924; 24 h after dose; single IM 2.5 mg/kg, aqueous 30% DMA/50% PEG400 solution
Quantity: concentration at 24 h
Show the value, then the unit it is measured in.

Enquiry: Request the reported concentration at 24 h associated with `Cc1cc(C=CC#N)cc(C)c1Nc1ccnc(Nc2ccc(C#N)cc2)n1`
Return: 7.7 ng/mL

----------
# Protocol Text: Plasma kinetics of TMC278 in beagle dogs after single intramuscular administration
# Assay type: in vivo
# Run Parameters: male, beagle, dog, plasma, intramuscular, 2.5 mg/kg, dog No. 16854; day 78; single IM 2.5 mg/kg, aqueous 30% DMA/50% PEG400 solution; read-out: plasma concentration during the wash-out period
# Method: The present study was performed in order to study the plasma kinetics and the absolute bioavailability of TMC278 in beagle dogs after single intramuscular administration (IM) of an aqueous 30% dimethylacetamide (DMA)/50% polyethylene glycol 400 (PEG400) solution of TMC278 at 2.5 mg/kg. […] The concentration of TMC278 in dog plasma was determined by a qualified research LC-MS/MS method after solid phase extraction (SPE). Plasma concentrations of TMC278 were determined after proper sample clean up. […]
Quantity: concentration at 78 day (ng/mL)
Numbers only; they are read as ng/mL.

Enquiry: If you can, please state the reported concentration at 78 day value of Cc1cc(C=CC#N)cc(C)c1Nc1ccnc(Nc2ccc(C#N)cc2)n1 [TMC278] .
Return: 2.62

----------
# Protocol Text: Plasma kinetics of TMC278 in beagle dogs after single intramuscular administration
# Type: in vivo
# Run Parameters: male, beagle, dog, plasma, im, 2.5 mg/kg, mean (n=2); single IM 2.5 mg/kg, aqueous 30% DMA/50% PEG400 solution
Quantity: Cmax (ng/mL)
Value expressed in ng/mL; do not type the unit.

Enquiry: Fill in the blank: the reported Cmax of `Cc1cc(C=CC#N)cc(C)c1Nc1ccnc(Nc2ccc(C#N)cc2)n1` is ____.
Return: 31.9

----------
# Protocol Text: Plasma kinetics of TMC278 in beagle dogs after single intramuscular administration
# Format: in vivo
# Run Parameters: male, beagle, dog, plasma, intramuscular, 2.5 mg/kg, dog No. 16924; 96 h after dose; single IM 2.5 mg/kg, aqueous 30% DMA/50% PEG400 solution
Quantity: concentration at 96 h

Enquiry: Look up concentration at 96 h for this compound: `Cc1cc(C=CC#N)cc(C)c1Nc1ccnc(Nc2ccc(C#N)cc2)n1`
Return: 3.97 ng/mL
